# System: NCI-H23
# Experiment summary: NCI tumour cell line growth inhibition, 48 h
Active and inactive are the calls of the source. No stated cut-off is given here; in the data, active = GI50 up to about 1.1 µM and inactive = higher. Residues, ends and D or L forms follow the SMILES beside them. *: point of attachment. Boc = CC(C)(C)OC(=O)*
Assay metric: GI50

Here is how some compounds turned out for GI50.
Compound	Target	Assay metric	Result
Cc1c(O)nc(/C=C/C(=O)O)nc1C(=O)O	NCI-H23	GI50	> 100 µM (inactive)
Cc1ccc(/C=C2\CCCC(CN3CCCCC3)C2=O)cc1 (stereo unspecified)	NCI-H23	GI50	2.17 µM (inactive)
COc1cc2c[n+](C)c3c4cc(OC)c(OC)cc4c(OCc4ccccc4)cc3c2cc1OC	NCI-H23	GI50	1.32 µM (inactive)
N#Cc1ccc(/C=N/NC(=O)CSCC(=O)N/N=C/c2ccc(C#N)cc2)cc1	NCI-H23	GI50	> 100 µM (inactive)
Cc1cccc(C)c1NC(=S)N/C=C(\C#N)C(N)=O	NCI-H23	GI50	> 100 µM (inactive)
N#CC(c1ccccc1)c1nc2ccc(N)cc2[n+]([O-])c1C(C#N)c1ccccc1 (stereo unspecified)	NCI-H23	GI50	67.8 µM (inactive)

// sample "O=[N+]([O-])c1ccc(-c2cc(O)c3nc4ccccc4n3c2)cc1" , its GI50 was > 100 µM (inactive)

// sample COC(=O)C(Cc1c[nH]c2ccccc12)NC(=O)C(Cc1c[nH]c2ccccc12)NC(=O)C(Cc1c[nH]c2ccccc12)NC(=O)C(Cc1c[nH]c2ccccc12)NC(=O)C(Cc1c[nH]c2ccccc12)NC(=O)C(Cc1c[nH]c2ccccc12)NC(=O)OC(C)(C)C (stereo unspecified) (Boc-WWWWWW-OMe; configuration not given here) , its GI50 was 28.5 µM (inactive)

// sample COc1ccc(C(OCC2OC(n3ccc(NC(=O)c4ccccc4)nc3=O)C(O)C2O)(c2ccccc2)c2ccccc2)cc1 (stereo unspecified) , its GI50 was 1.32 µM (inactive)

// sample CN(C)CC(=O)N1CCc2c([nH]c3ccccc23)C1c1cccnc1 (stereo unspecified) , its GI50 was > 100 µM (inactive)

// sample "Cc1cc(C)n(CN(Cn2nc(C)cc2C)C2CCCCC2)n1" , its GI50 was 24 µM (inactive)

// sample "COCCCNc1c2ccccc2nc2ccccc12" , its GI50 was 2.92 µM (inactive)

// sample O=[N+]([O-])C1=Cc2c(O)ccc(O)c2C2c3ccccc3NC12 (stereo unspecified) , its GI50 was 4.24 µM (inactive)

// sample "COc1ccc(/C=C/NC=O)cc1" , its GI50 was > 100 µM (inactive)

// sample "Cc1nc(C(N)=S)sc1C(=O)CC(=O)C(=O)Nc1ccc(Br)cc1" , its GI50 was > 100 µM (inactive)

// sample "CCCCCCCCCCCCOC(=S)NC" , its GI50 was 20.4 µM (inactive)

The origin of these recorded values is ChEMBL document CHEMBL1201862.
